test: OD615 S. cerevisiae growth inhibition, permissive medium, pilot counter-assay, permissive growth control for S. cerevisiae lifespan shortening project (AID 705); conditions: OD615, 24 h, at 10 µM, active compounds read high
Provide the recorded growth inhibition for the entries that follow.
Express it in %; write the number only.

Q: Fill in the blank: the reported growth inhibition of `Nc1ccc2nc3n(c(=O)c2c1)CCC3` is ____.
A: -2.62

Q: Request: `COC(=O)c1[nH]c2cc(OC)ccc2c1NC(=O)c1ccc2c(c1)OCO2`
A: -9.79

Q: # iterate: `CCOc1ccccc1N1CCN(C(=O)c2cc(C)oc2C)CC1`
A: -10.5

Q: Moving on to `CCOC(=O)C1CCN(C(=O)c2oc3ccc(S(=O)(=O)N4CCCCCC4)cc3c2C)CC1`
A: 0.58

---

assay: growth suppression of PTEN-deleted HCT116, pilot screen, cell-based, HCT116 clonal line, CellTiter-Glo (AID 824); details: 60 h, at 10 µM, active compounds read low;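 further: 0% = 20 µM Hyamine control and 100% = vehicle cell control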
Records with an inconclusive call do not appear. Non-standard residues stand in square brackets, D forms with d. Residues, ends and D or L forms follow the SMILES beside them. ξ: configuration not given here. *: point of attachment. Cbz = O=C(OCc1ccccc1)*; ξV = CC(C)C(N)C(=O)O; OtBu = CC(C)(C)O*
Field: viability. Provide a value for each of the compounds that follow.
Reply with just the number (in %).

Q: Fill blank: measured viability of the compound `O=C(Cn1cc2c(n1)CCCC2)NCCCN1CCN(c2ccccc2F)CC1` is ____.
A: 89

Q: Now consider `Fc1cccc(Cl)c1CSc1ncn[nH]1` .
A: 85.6

Q: Let us now turn to `CCOC(=O)CON1C(=O)C(C)(C)N(OCC(=O)OCC)C(=O)C1(C)C`
A: 101

Q: Likewise for COc1ccc(C2C(C(=O)c3ccco3)=C(O)C(=O)N2CCc2ccccc2)cc1OC (stereo not given) ?
A: 92.5

Q: Repeat for the following compound: `CCn1c(=O)c2cc(C(=O)N3CCCC3)sc2c2ccccc21`
A: 96.8

Q: Another compound to look at: `Cc1cccc(Nc2ncnc3nc[nH]c23)c1C`
A: 103

Q: // query: `COc1ccc(-n2c(Cn3c(=O)sc4ccccc43)nnc2SCC(=O)N2CCCC2)cc1`
A: 102

Q: Try the compound `Cc1ccsc1C(=O)OCC(=O)c1cc2ccccc2o1`
A: 97.3

Q: Repeat for the following compound: CC(C)C(NC(=O)OCc1ccccc1)C(=O)NCC(=O)OC(C)(C)C (stereo not given) (Cbz-[ξV]-Gly-OtBu)
A: 95.2

Q: Would you kindly repeat that for `O=C(c1ccccc1Cl)N1CCC(c2nc3c(nnn3Cc3ccco3)c(=O)[nH]2)CC1` ?
A: 87.3

Q: Record: `O=C(Nc1ccc(F)cc1F)N1CCN(c2ncccn2)CC1`
A: 100

Q: Then `Cc1nn(C)c(C)c1S(=O)(=O)N(CC(=O)Nc1ccccn1)c1ccc(C(C)C)cc1` ?
A: 82.2

Q: `CCOC(=O)c1[nH]c2ccccc2c1NC(=O)c1ccc(Br)o1` , same question.
A: 69.9

Q: Another: Cc1ccc(C2CC(c3ccc(F)cc3)Nc3nc(N)nn32)cc1 (stereo not given)
A: 86.7

Q: Likewise for `CCCCNC(=O)Nc1cc(C(=O)OC)ccc1C` ?
A: 91.4

Q: Similarly, Cc1ccc(OCC(O)CN2CCN(CC(O)COc3ccc(C)cc3Cl)CC2)c(Cl)c1 (stereo not given) ?
A: 81.8

Q: Continue with `CCCC(=O)Nc1nc2c(OC)ccc(OC)c2s1`
A: 90.3

Q: Try this compound too: `Cc1ccc(S(=O)(=O)NC(=O)Nn2c(C)nnc2C)cc1`
A: 102

Q: // repeat for `Cc1ccc(N2CCN(C(=O)c3ccccc3F)CC2)c(C)c1` and report
A: 91

Q: Another: O=C(C1CC(c2ccc(F)cc2)=NO1)N1CCc2ccccc2C1 (stereo not given)
A: 99.5

Q: Now consider `CCOC(=O)C1CCN(c2c(N3CCN(Cc4ccccc4)CC3)c(=O)c2=O)CC1` and answer again.
A: 86.3

Q: Cool, now `CC1(C)Nc2ccccc2N(CC(=O)N2CCCCC2)C1=O`
A: 103

Q: Can you check `Cc1cc(C(C)(C)C)oc1C(=O)Nc1ccc(CC(=O)O)cc1` next?
A: 98.9

Q: Same question, CCc1cc(Br)ccc1N1C(=O)C2CC=CCC2C1=O (stereo not given) this time
A: 94.9

Q: Same question, `CN(C)c1ccc(C(=O)Nc2ccc(S(=O)(=O)NC3=NCCCCC3)cc2)cc1` this time
A: 99.4

Q: // repeat for `Cc1ccc(N(CC(=O)Nc2ccc(S(=O)(=O)N3CCOCC3)cc2)S(C)(=O)=O)cc1C` and report
A: 84.2

Q: Then what about the compound Cc1ccc(CC(CC(=O)O)C(=O)NC2CCCCC2)cc1 (stereo not given) ?
A: 99.2

Q: Please do the same for Cc1ccccc1-n1nc2c(c1NC(=O)COc1ccc(Cl)cc1)CS(=O)C2 (stereo not given) as well.
A: 92.6

Q: Param item: `COC(=O)CCc1nc2ccccc2[nH]c1=O`
A: 100

Q: Here is the next compound: `Cc1c(NC(=O)c2ccco2)cccc1-c1nc2cccnc2s1`
A: 95.5

Q: Try `Clc1ccccc1N1CCN(c2ncnc3nc[nH]c23)CC1` next.
A: 95.7

Q: Now the compound `Cc1nc(CNS(=O)(=O)c2ccccc2F)cs1`
A: 91.5

Q: Another compound to look at: `O=C(Cc1ccc(Cl)cc1)Nc1ccccc1CO`
A: 101

Q: Then this compound: CCC(C)C1C(C#N)=C(N)Oc2n[nH]c(C)c21 (stereo not given)
A: 62.9

Q: Please answer likewise for `CC(=O)Nc1ccc(NC(=O)c2oc3cc(C)c(C)cc3c2C)cc1`
A: 96.4

---

assay: growth inhibitors of H69AR lung tumor, primary screen, human, duplicate replicates (AID 580); settings: H69AR lung tumor cells viability, ATP luminescence, 72 h; at 10 µM; active compounds read low;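 further: 100% = mean luminescence of untreated wells and 0% = no signal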
For each record, write down the corresponding viability.
The response must be a number in % with no trailing unit.

Q: # query: viability of entry CCCCCCC1/C(=N/O)CCC1C(=O)OC (stereo unspecified)
A: 83.2

Q: Check `CN(C#N)c1nc(N2CCOCC2)nc(N2CCOCC2)n1` too.
A: 92.8

Q: // repeat for `COc1ccc(-n2c(SCc3ccc(C#N)cc3)nnc2-c2ccccn2)cc1` and report
A: 96.3

Q: Would you kindly repeat that for `CCCCN(C)C(=O)CS(=O)(=O)Cc1nc(-c2cccc(OC)c2)oc1C` ?
A: 99.9

Q: Moving on to CC(NC(=O)C1CCCN(S(=O)(=O)c2cccs2)C1)c1ccccc1 (stereo unspecified)
A: 89.7

Q: Same read-out for `Cc1nnc(SCC(=O)Nc2cc(C(F)(F)F)ccc2N2CCOCC2)o1` ?
A: 86.8

---

experiment: HUVEC growth inhibition – cell-based, human, primary screen (AID 575); details: HUVEC proliferation, CellTiter-Glo luminescence, 72 h; at 10 µM; active compounds read low;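 further: 100% = median of untreated cell wells with 0.1% DMSO on each plate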
property_measured: viability (%)
Please state the figure in %; there is no need to write the unit.

Q: State the recorded viability for this entry: `CCOC(=O)N1CCN(C(=O)c2cccn3c(=O)c4sccc4nc23)CC1`
A: 106

Q: Lookup `COc1cc(S(=O)(=O)NC2CCCCC2)ccc1Cl`
A: 82.3

Q: Okay, and CC(C)COc1nc2ccccc2nc1C(C#N)C(=O)NC1CCCCC1 (centres undefined) ?
A: 80

Q: Same again, this time with `COc1ccc2cc(C#N)c(SCC(=O)N3CCCC3)nc2c1`
A: 90.4

Q: How about this compound: `COc1ccc(NS(=O)(=O)c2c(C)[nH]c(=O)[nH]c2=O)c(OC)c1`
A: 97.9

Q: Record: `CCOc1ccccc1NC(=O)NC1CCN(CC(=O)Nc2ccc3c(c2)OCCO3)CC1`
A: 73.9

Q: Input CC(C)CNC(=O)C1CC(=O)OC12CCCCC2 (centres undefined)
A: 112

Q: Could you do the same for `COc1ccc(OC)c(Nc2cc(-c3ccccc3)nc(N)n2)c1` , please?
A: 34.2

Q: And for NC(Cc1ccc(Oc2ccc(O)cc2)cc1)C(=O)O (centres undefined) ?
A: 107

Q: Follow-up item: `CC(=O)c1cc(C#N)c(SCC(=O)OC(C)C)nc1C`
A: 88

Q: Same question for `CCc1ccccc1NC(=O)CSc1ncn[nH]1` please.
A: 97.9

Q: Also need `O=S1(=O)N=C(Nc2nc3c(s2)CCCC3)c2ccccc21` , thanks.
A: 85.4

Q: Moving on to `Cc1ccc(C)c(N2CCN(C(=O)c3ccc(CS(=O)(=O)c4ccccc4C)o3)CC2)c1`
A: 50.8

Q: `Cc1cc(Cl)ccc1OCCCC(=O)N1CCOCC1` ?
A: 99.5
